# assayTarget: T1, recombinant human IL-12 (rhIL-12) (human, UniProt P29459 23-219; P29460 23-328)
# T1 construct: disulfide-linked p35/p40 heterodimer (p70); also called IL-12 p70; rec. human IL12
# T1 sequence (looked up) 1: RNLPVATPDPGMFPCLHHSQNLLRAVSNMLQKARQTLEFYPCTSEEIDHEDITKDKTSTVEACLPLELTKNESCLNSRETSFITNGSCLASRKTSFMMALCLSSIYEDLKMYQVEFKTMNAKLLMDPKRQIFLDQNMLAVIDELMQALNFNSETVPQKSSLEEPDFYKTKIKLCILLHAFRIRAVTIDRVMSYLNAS
# T1 sequence (looked up) 2: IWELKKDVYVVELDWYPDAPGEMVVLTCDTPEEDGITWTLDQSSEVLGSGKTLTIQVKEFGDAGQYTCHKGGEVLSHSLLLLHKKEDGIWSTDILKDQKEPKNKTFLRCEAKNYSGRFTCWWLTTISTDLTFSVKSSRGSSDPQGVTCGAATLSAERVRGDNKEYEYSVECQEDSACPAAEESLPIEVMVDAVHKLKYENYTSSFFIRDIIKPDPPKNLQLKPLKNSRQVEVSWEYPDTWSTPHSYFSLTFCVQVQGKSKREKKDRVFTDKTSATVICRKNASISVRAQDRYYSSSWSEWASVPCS
# measurementNotes: BIAcore SPR, IL-12 on chip
assayReadout: koff (s⁻¹)
Numeric answer only, unit s⁻¹ assumed.

99-E9 (scFv, V domains shown, scFv clone) VH: QVQLVQSGGGVVQPGRSLRLSCAASGFTFSSYGMHWVRQAPGKGLEWVAFIRYDGSNKYYADSVKGRFTISRDNSKNTLYLQMKSLRAEDTAVYYCKTHGSHDNWGQGTMVTVSS VL: SYVLTQPPSVSGTPGQRVTISCSGGRSNIGSNTVKWYQQLPGTAPKLLIYGNDQRPSGVPDRFSGSKSGTSASLAITGVQAEDEADYYCQSYDSGFTGSRVFGTGTKVTVL
0.0054
L3.3R3M-G8 (scFv, V domains shown, scFv clone) VH: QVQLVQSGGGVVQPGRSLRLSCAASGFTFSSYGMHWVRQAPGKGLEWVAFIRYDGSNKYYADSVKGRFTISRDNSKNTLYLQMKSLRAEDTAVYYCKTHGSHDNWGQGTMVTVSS VL: SYVLTQPPSVSGTPGQRVTISCSGGRSNIGSNTVKWYQQLPGTAPKLLIYGNDQRPSGVPDRFSGSKSGTSASLAITGVQAEDEADYYCQSYDRGSYPALRFGTGTKVTVL
5.55
Y139 (scFv, V domains shown, scFv clone) VH: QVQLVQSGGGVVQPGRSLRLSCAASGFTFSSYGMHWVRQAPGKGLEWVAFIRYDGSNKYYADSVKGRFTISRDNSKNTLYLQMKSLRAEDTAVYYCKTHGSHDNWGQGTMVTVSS VL: SYVLTQPPSVSGTPGQRVTISCSGGRSNIGSNTVKWYQQLPGTAPKLLIYGNDQRPSGVPDRFSGSKSGTSASLAITGVQAEDEADYYCQSYDRGSHPALTFGTGTKVTVL
0.000592

Let us move to another entry and its koff.
[ask] Given Y177 (scFv, V domains shown, scFv clone) VH: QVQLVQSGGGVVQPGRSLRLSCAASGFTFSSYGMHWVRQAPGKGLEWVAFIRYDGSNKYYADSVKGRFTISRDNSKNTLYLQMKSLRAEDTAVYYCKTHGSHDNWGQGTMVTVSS VL: SYVLTQPPSVSGTPGQRVTISCSGGRSNIGSNTVKWYQQLPGTAPKLLIYGNDQRPSGVPDRFSGSKSGTSASLAITGVQAEDEADYYCQSYDRGSHPTLIFGTGTKVTVL , respond with its koff.
[reply] 0.000661
